Molecular target: T1, Recombinant WNV-E protein ectodomain (West Nile virus, UniProt Q9Q6P4 291-700)
T1 construct: extracellular domain; also called rWNV-E; WNE
T1 sequence (looked up): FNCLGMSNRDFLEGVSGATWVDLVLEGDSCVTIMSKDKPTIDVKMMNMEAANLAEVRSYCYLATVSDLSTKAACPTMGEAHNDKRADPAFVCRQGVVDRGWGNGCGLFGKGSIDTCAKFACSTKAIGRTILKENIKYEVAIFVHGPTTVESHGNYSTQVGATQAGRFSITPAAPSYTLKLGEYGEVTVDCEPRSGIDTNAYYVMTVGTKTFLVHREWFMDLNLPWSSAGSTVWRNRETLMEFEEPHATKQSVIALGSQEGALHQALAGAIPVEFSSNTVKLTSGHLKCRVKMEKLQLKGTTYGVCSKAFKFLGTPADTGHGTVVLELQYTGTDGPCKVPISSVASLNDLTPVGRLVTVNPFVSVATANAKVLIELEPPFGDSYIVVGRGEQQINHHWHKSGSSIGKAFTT
Test: SPR (Biacore 3000); scFv on NTA chip via His tag, rWNV-E in solution
observable: Ka

binder	Ka
scFv 15 (scFv, also called 15 scFv; antibody 15) scFv: MAQVQLVQSGAEVKKPGASVKVSCKASGYTFSGYSTHWLRQVPGQGLEWIGWDNPSSGDTTYAENFRGRVTLTRDTSITTDYLEVRGLRSDDTAVYYCARGGDDYSFDHWGQGTLVTVSSGGGGSGGGGSGGGGSQSALTQPASVSGSPGQSITISCTGTNSDVGIYNLVSWYQQHPGKAPKLMIYDVSNRPSGVSSRFSGSNSGNTATLTISGLQAEDEADYYCSAHAGDNTQFGGGTKLTVLSQPKAAPSAAAEQKLISEEDL	1.04e+08 M⁻¹

For the next question, use this binder.
Need Ka, item scFv 84 (scFv, also called 84 scFv; antibody 84) scFv: MAQVQLVQSGAEVKKPGASVKVSCKASGYTFSGYSTHWLRQVPGQGLEWIGWDNPSSGDTTYAENFRGRVTLTRDTSITTDYLEVRGLRSDDTAVYYCARGGDDYSFDHWGQGTLVTVSSGGGGSGGGGSGGGGSQSVLTQPPSVSVAPGKTARIPCGGNNSGTKSVHWYQQKPGQAPVLVIYDDRVRPSGIPERFSGSNSGDTATLTISRVAAGDEADYYCQVSDGSGDPPTWVFGGGTRLTVLGQPKAAPSAAAEQKLISEEDL 2.65e+07 M⁻¹
